assay: chemical genetic growth profiling, strain panel (AID 1159580);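 also: tested at 20 µM; growth read once vehicle control cultures reached saturation at 30 °C; 1 = growth at the plate median or of vehicle wells; lower values mean less growth of the strain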; details: S. cerevisiae deletion strains, growth OD, locus YGL248W, strain PDE1, active compounds read low
Among all 5,500 compounds or so, about 2,000 (36%) were called active. Another 18% or so got no clear call; they are omitted. Some of the results follow.

{"compound": "c1ccc2c(c1)CCCC2C1=NCCN1 (centres undefined)", "normalized growth": 1.01}
{"compound": "COc1ccc(OC)c(C(O)CNC(=O)CN)c1 (centres undefined)", "normalized growth": 0.967}
{"compound": "COC(=O)C[C@H]1C2(C)CC34OC5(C)O[C@@]6([C@H](OC(C)=O)C(OC(C)=O)[C@]7(C)C(/C(=C(/O)C(C)C)C(=O)O[C@H]7c7ccoc7)[C@@]6(O5)[C@H](OC(C)=O)[C@@]3(O)C2OC(=O)C(C)C)[C@]14C (some centres undefined)", "normalized growth": 0.997}
{"compound": "COc1ccccc1-c1coc2cc(O)ccc2c1=O", "normalized growth": 1.01}
{"compound": "COc1ccc(-c2coc3cc(O)ccc3c2=O)cc1", "normalized growth": 0.853}
{"compound": "COC(=O)CC1C2(C)CC34OC5(C)OC6(C7/C(=C(/O)C(C)C)C(=O)OC(c8ccoc8)C7(C)C(OC(=O)C(C)C)C(OC)C6(O5)C13C)C(OC)C4(OC)C2OC(C)=O (centres undefined)", "normalized growth": 1.01}
{"compound": "O=C(O)/C=C/c1ccc(O)c(O)c1", "normalized growth": 0.999}
{"compound": "CCN(CC)C(=O)N1CCN(C)CC1", "normalized growth": 1.01}
{"compound": "CN(C)CCN(Cc1cccs1)c1ccccn1", "normalized growth": 0.993}
